PROCEDURE DETAILS: modulators of CD8 T cell-vesicle binding, confirmation, cherry-picked primary hits, two concentrations (AID 2810);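 note: lower values mean blocking of vesicle binding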
STUDY CONDITIONS: 2C CD8+ T cell-vesicle binding, flow cytometry; CD8+/vesicle+ events; at 7.7 µM
The campaign covered roughly 1,200 compounds. About 65 (5%) were called active. Shown is part of a subset that was picked to be rich in actives.
Rule: double positive events below 20% gives condition met, anything at or above gives condition not met.

- O=C(NN1C(=O)C2C3C=CC([C@H]4CC34)[C@@H]2C1=O)c1ccc(Br)cc1 (stereo partly specified): condition not met
- O=C(Nc1ccccc1C(=O)OCC(=O)c1c[nH]c2ccccc12)c1ccco1: condition met
- Cc1ccc(C(=O)NC(C)CCc2ccccc2)cc1[N+](=O)[O-] (stereo unspecified): condition not met
- Cc1ncc([N+](=O)[O-])n1Cc1cccc(F)c1: condition met
- CCCOc1ccc(N2C(=O)CC(N(O)c3ccccc3)C2=O)cc1 (stereo unspecified): condition met
- Cc1cc(C(=O)NCc2cc(C(=O)O)oc2C)c(C)o1: condition not met
- COc1ccc(NCc2nc3ccccc3n2CCOc2ccccc2)cc1: condition not met
- CC1(C)Cc2c(C#N)c(NC3CCCCC3)nc(-c3ccco3)c2CO1: condition met
- COc1ccc([C@H]2CC(=O)C=C(c3ccc(OC)nc3)C2)cc1: condition met
- Cc1cc([N+](=O)[O-])nn1CC(=O)Nc1nccs1: condition not met
- CN(C)S(=O)(=O)c1cccc(-n2sc3ccccc3c2=O)c1: condition met
- CCCOc1ccc(C2=CC(=O)C[C@H](c3ccc(OC)cc3)C2)cc1: condition met
- COc1ccc(C2=CC(=O)C[C@H](c3ccc4c(c3)OCO4)C2)cn1: condition met
- Cc1ccc(NC(=O)C2CCCO2)cc1[N+](=O)[O-] (stereo unspecified): condition not met
- CCSc1nnc(NC(=O)c2ccc(F)c(S(=O)(=O)N3CCOCC3)c2)s1: condition not met
- CCOC(=O)C1CCN(C(=O)c2cccc(S(=O)(=O)NCc3ccccc3)c2)CC1: condition met
- Cc1ccc2oc(=O)c(/C=C(\O)c3sc(C)nc3C)nc2c1: condition met
- Cc1cc(C)c(C(=O)N2CCCC(N3CCN(c4ccc(F)cc4)CC3)C2)o1 (stereo unspecified): condition not met
- C=CCNC(=O)c1c(Cl)nc(C)c([N+](=O)[O-])c1C: condition not met
- CCOC(=O)C1CCN(C(=O)c2ccc(NC(=O)C3CCCO3)cc2)CC1 (stereo unspecified): condition not met
- COc1cc(OC)cc(C(=O)NC(C(=O)Nc2ccc3c(c2)CCC3)C(C)C)c1 (stereo unspecified): condition met

* * *

PROCEDURE DETAILS: modulators of CD8 T cell-vesicle binding, confirmation, cherry-picked primary hits, two concentrations (AID 2810);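 note: lower values mean blocking of vesicle binding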
STUDY CONDITIONS: 2C CD8+ T cell-vesicle binding, flow cytometry; CD8+/vesicle+ events; at 7.7 µM
Out of some 1,200 compounds screened, about 65 (5%) were called active. The sample holds actives, similar compounds and a random draw of the others, so the mix is not that of the screen.
Rule: double positive events below 10% gives true (1), anything at or above gives false (0).

• C/C(=N\Nc1nc2ccccc2[nH]1)c1cc2ccccc2o1 = false (0)
• COc1ccc([N+](=O)[O-])cc1NC(=O)C(C)Sc1nc(-c2ccccc2)cs1 (stereo not given) = false (0)
• Cc1c(C(=O)N(C)Cc2ccccc2)oc2ccc(S(=O)(=O)N3CCCC3)cc12 = false (0)
• Cc1ccc(CN2CC(=O)N3[C@H]4c5cc(C)ccc5OC[C@@H]4[C@H](c4ccccc4)[C@]3(C)C2=O)cc1 = true (1)
• O=C(N/N=C/c1cccc(OCc2ccccc2)c1)c1ccc(Br)cc1 = true (1)
• COc1cccc(-c2ccc(NC(=O)C3CCCN(Cc4cc(C)[nH]n4)C3)cc2)c1 (stereo not given) = false (0)
• COc1ccc([N+](=O)[O-])cc1N(CC(=O)O)S(C)(=O)=O = true (1)
• COc1cccc(C(=O)O[C@@H]2[C@H](Cc3ccccc3)NS(=O)(=O)[C@H]3C[C@@H]4C=C[C@]23O4)c1 = false (0)
• COc1ccc(CNC(=O)COC(=O)CCN2C(=O)C3CC=CCC3C2=O)cc1OC (stereo not given) = false (0)
• COc1ccc(CNC(=O)c2cccnc2SC)cc1OC = true (1)
